target: Adrenergic β2 (H292 cells) (Homo sapiens, UniProt P07550); construct: endogenous in cells; host or cells: H292 cells; test: Adrenergic β2 Mediated cAMP Production, single concentration 1 μM; format: cell-based; conditions: NCI-H292, 1 μM compound, percentage of the maximum response generated by 1E-07M formoterol, read-out: β2 (% effect at 1 μM)
Sequence (P07550 whole entry): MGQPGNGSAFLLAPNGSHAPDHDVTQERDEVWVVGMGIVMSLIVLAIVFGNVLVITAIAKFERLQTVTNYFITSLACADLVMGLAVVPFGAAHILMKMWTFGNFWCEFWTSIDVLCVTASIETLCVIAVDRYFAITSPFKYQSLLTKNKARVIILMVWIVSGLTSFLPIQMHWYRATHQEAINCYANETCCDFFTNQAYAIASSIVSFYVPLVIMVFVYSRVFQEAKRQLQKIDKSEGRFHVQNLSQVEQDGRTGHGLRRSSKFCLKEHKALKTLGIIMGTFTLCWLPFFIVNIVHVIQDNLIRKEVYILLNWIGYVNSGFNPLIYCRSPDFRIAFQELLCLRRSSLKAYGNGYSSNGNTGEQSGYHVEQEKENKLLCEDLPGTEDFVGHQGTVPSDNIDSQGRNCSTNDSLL
property measured: activation at 1 µM (%)
Reply with just the number (in %).

[Q] Consider the compound shown here: O=C(c1cc2ccccc2s1)N1CCOC2(CCN(CCOc3ccc(CNC[C@H](O)c4ccc(O)c5[nH]c(=O)sc45)cc3)CC2)C1 What is its recorded activation at 1 µM?
[A] 97

[Q] Consider the compound shown here: O=C(c1csc(C2CCC2)n1)N1CCOC2(CCN(CCOc3ccc(CNC[C@H](O)c4ccc(O)c5[nH]c(=O)sc45)cc3)CC2)C1 What is its recorded activation at 1 µM?
[A] 70

[Q] Consider the compound shown here: Cc1ccoc1C(=O)N1CCOC2(CCN(Cc3cc(F)cc(CCNC[C@H](O)c4ccc(O)c5[nH]c(=O)sc45)c3)CC2)C1 What is its recorded activation at 1 µM?
[A] 97

[Q] Consider the compound shown here: O=C(c1csc(C2CC2)n1)N1CCOC2(CCN(CCOc3ccc(CNC[C@H](O)c4ccc(O)c5[nH]c(=O)sc45)cc3)CC2)C1 What is its recorded activation at 1 µM?
[A] 68

[Q] Consider the compound shown here: O=C(c1cc2ccccc2s1)N1CCOC2(CCN(CCCCCCCCCNC[C@H](O)c3ccc(O)c4[nH]c(=O)sc34)CC2)C1 What is its recorded activation at 1 µM?
[A] 92

[Q] Consider the compound shown here: O=C(c1csc(C2CC2)n1)N1CCOC2(CCN(CCCCCCCCCNC[C@H](O)c3ccc(O)c4[nH]c(=O)sc34)CC2)C1 What is its recorded activation at 1 µM?
[A] 95

[Q] Consider the compound shown here: Cc1csc(C(=O)N2CCOC3(CCN(CCCCCCCCCNC[C@H](O)c4ccc(O)c5[nH]c(=O)sc45)CC3)C2)c1 What is its recorded activation at 1 µM?
[A] 87

[Q] Consider the compound shown here: O=C(COCCc1ccccc1)N1CCOC2(CCN(Cc3cc(F)cc(CCNC[C@H](O)c4ccc(O)c5[nH]c(=O)sc45)c3)CC2)C1 What is its recorded activation at 1 µM?
[A] 89

[Q] Consider the compound shown here: O=C([C@@H]1CCCO1)N1CCOC2(CCN(Cc3cc(F)cc(CCNC[C@H](O)c4ccc(O)c5[nH]c(=O)sc45)c3)CC2)C1 What is its recorded activation at 1 µM?
[A] 95

[Q] Consider the compound shown here: Cc1ccsc1C(=O)N1CCOC2(CCN(Cc3cc(F)cc(CCNC[C@H](O)c4ccc(O)c5[nH]c(=O)sc45)c3)CC2)C1 What is its recorded activation at 1 µM?
[A] 97

[Q] Consider the compound shown here: O=C(Cc1ccsc1)N1CCOC2(CCN(Cc3cc(F)cc(CCNC[C@H](O)c4ccc(O)c5[nH]c(=O)sc45)c3)CC2)C1 What is its recorded activation at 1 µM?
[A] 98

[Q] Consider the compound shown here: Cc1nc2cc(C(=O)N3CCOC4(CCN(CCCCCCCCCNC[C@H](O)c5ccc(O)c6[nH]c(=O)sc56)CC4)C3)ccc2s1 What is its recorded activation at 1 µM?
[A] 89

[Q] Consider the compound shown here: O=C(Cc1ccccc1)N1CCOC2(CCN(CCOc3ccc(CNC[C@H](O)c4ccc(O)c5[nH]c(=O)sc45)cc3)CC2)C1 What is its recorded activation at 1 µM?
[A] 80

====

Give measured β2 Intrinsic activity for each item. Keep answers brief.
target: Adrenergic β2 (H292 cells) (Homo sapiens, UniProt P07550); construct: endogenous in cells; host or cells: H292 cells; experiment: Assay for Adrenergic β2 Mediated cAMP Production (concentration response, AlphaScreen cAMP detection); type: cell-based; conditions: fraction relative to the maximum activity determined for formoterol
Where a name gives a salt, the structure may show the parent alone.
I only need the number, thanks.

[Q] Consider the molecule shown here: CC(C)c1cc(C(=O)N2CCOC3(CCN(Cc4cccc(CC(C)(C)NC[C@H](O)c5ccc(O)c6[nH]c(=O)ccc56)c4)CC3)C2)cs1 [Example 275, ditrifluoroacetate] What is its recorded β2 Intrinsic activity?
[A] 1

[Q] Consider the molecule shown here: Cc1ccc(C(=O)N2CC(F)(F)OC3(CCN(Cc4cccc(CCNC[C@H](O)c5ccc(O)c6[nH]c(=O)ccc56)c4)CC3)C2)s1 [Example 37, ditrifluoroacetate] What is its recorded β2 Intrinsic activity?
[A] 0.9

[Q] Consider the molecule shown here: CC(C)c1cc(C(=O)N2CCOC3(CCN(Cc4cccc(C[C@@H](C)NC[C@H](O)c5ccc(O)c6[nH]c(=O)ccc56)c4)CC3)C2)cs1 [Example 276, ditrifluoroacetate] What is its recorded β2 Intrinsic activity?
[A] 1

[Q] Consider the molecule shown here: Cc1ccc(C(=O)N2CCOC3(CN(Cc4cccc(CCNC[C@H](O)c5ccc(O)c6[nH]c(=O)sc56)c4)C3)C2)s1 [Example 33, ditrifluoroacetate] What is its recorded β2 Intrinsic activity?
[A] 1

[Q] Consider the molecule shown here: CC(C)c1nc(C(=O)N2CC(F)(F)OC3(CCN(Cc4cccc(CCNC[C@H](O)c5ccc(O)c6[nH]c(=O)ccc56)c4)CC3)C2)cs1 [Example 44, ditrifluoroacetate] What is its recorded β2 Intrinsic activity?
[A] 1

[Q] Consider the molecule shown here: CC(C)c1nc(C(=O)N2CCOC3(CCN(CCOc4ccc(CNC[C@H](O)c5ccc(O)c6[nH]c(=O)sc56)cc4)CC3)C2)cs1 [Example 108, formate] What is its recorded β2 Intrinsic activity?
[A] 0.9

[Q] Consider the molecule shown here: Cc1nc(C(=O)N2CCOC3(CCN(CCOc4ccc(CNC[C@H](O)c5ccc(O)c6[nH]c(=O)sc56)cc4)CC3)C2)cs1 [Example 1, ditrifluoroacetate] What is its recorded β2 Intrinsic activity?
[A] 0.8

[Q] Consider the molecule shown here: CC(C)c1nc(C(=O)N2CCOC3(CCN(CCCCCC(C)(C)CNC[C@H](O)c4ccc(O)c5[nH]c(=O)sc45)CC3)C2)cs1 [Example 102, formate] What is its recorded β2 Intrinsic activity?
[A] 0.9

[Q] Consider the molecule shown here: Cc1ccc(C(=O)N2CCOC3(CCN(Cc4cccc(CCNC[C@H](O)c5ccc(O)c6[nH]c(=O)sc56)c4)CC3)C2)s1 [Example 15, trifluoroacetate] What is its recorded β2 Intrinsic activity?
[A] 0.9

[Q] Consider the molecule shown here: CC(C)c1cnc(C(=O)N2CCOC3(CCN(Cc4cc(F)cc(CCNC[C@H](O)c5ccc(O)c6[nH]c(=O)sc56)c4)CC3)C2)s1 [Example 54, ditrifluoroacetate] What is its recorded β2 Intrinsic activity?
[A] 0.9

[Q] Consider the molecule shown here: O=C(c1nc2ccccc2s1)N1CCOC2(CCN(CCCCCCCCCNC[C@H](O)c3ccc(O)c4[nH]c(=O)sc34)CC2)C1 [Example 107, formate] What is its recorded β2 Intrinsic activity?
[A] 0.9

====

target: human muscarinic acetylcholine M3 receptor (M3-ACh) (Homo sapiens); construct: expressed in transfected cells; host or cells: CHO-K1 (Chinese Hamster Ovary) cell membranes; assay: Muscarinic 3 Receptor Binding Assay, % inhibition specific binding at 1 μM; settings: 1 μM compound, % inhibition specific [3H]-NMS binding
Sequence (P20309 whole entry): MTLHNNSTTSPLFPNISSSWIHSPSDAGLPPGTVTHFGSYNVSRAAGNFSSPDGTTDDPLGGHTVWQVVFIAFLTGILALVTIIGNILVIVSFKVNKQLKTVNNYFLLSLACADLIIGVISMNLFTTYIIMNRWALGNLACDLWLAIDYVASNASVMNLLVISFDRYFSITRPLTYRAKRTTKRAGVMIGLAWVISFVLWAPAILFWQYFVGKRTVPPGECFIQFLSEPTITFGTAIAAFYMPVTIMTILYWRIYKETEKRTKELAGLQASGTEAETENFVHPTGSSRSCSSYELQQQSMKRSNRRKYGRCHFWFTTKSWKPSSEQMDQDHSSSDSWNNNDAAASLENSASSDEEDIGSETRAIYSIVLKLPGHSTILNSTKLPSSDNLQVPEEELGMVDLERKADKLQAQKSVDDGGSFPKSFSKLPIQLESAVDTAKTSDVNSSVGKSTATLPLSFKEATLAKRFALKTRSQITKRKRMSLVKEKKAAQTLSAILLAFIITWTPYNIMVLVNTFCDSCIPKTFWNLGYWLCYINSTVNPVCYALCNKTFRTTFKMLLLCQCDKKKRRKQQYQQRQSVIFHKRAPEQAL
Short version: inhibition at 1 µM at least 90% is 1, less is 0.

[Q] Check the entry Cc1occc1C(=O)N1CCOC2(CCN(CCCCCCCCCNC[C@H](O)c3ccc(O)c4[nH]c(=O)sc34)CC2)C1 : does inhibition at 1 µM equal or exceed 90%?
[A] 1

[Q] Check the entry Cc1ccc(C(=O)N2CCOC3(CCN(Cc4cc(F)cc(CCNC[C@H](O)c5ccc(O)c6[nH]c(=O)sc56)c4)CC3)C2)s1 : does inhibition at 1 µM equal or exceed 90%?
[A] 1

[Q] Check the entry O=C(Cc1cccs1)N1CCOC2(CCN(CCCCCCCCCNC[C@H](O)c3ccc(O)c4[nH]c(=O)sc34)CC2)C1 : does inhibition at 1 µM equal or exceed 90%?
[A] 1

[Q] Check the entry Cc1cc(C(=O)N2CCOC3(CCN(Cc4cc(F)cc(CCNC[C@H](O)c5ccc(O)c6[nH]c(=O)sc56)c4)CC3)C2)oc1C : does inhibition at 1 µM equal or exceed 90%?
[A] 0

[Q] Check the entry Cc1sccc1C(=O)N1CCOC2(CCN(Cc3cc(F)cc(CCNC[C@H](O)c4ccc(O)c5[nH]c(=O)sc45)c3)CC2)C1 : does inhibition at 1 µM equal or exceed 90%?
[A] 0

[Q] Check the entry Cc1ccnn1CC(=O)N1CCOC2(CCN(CCOc3ccc(CNC[C@H](O)c4ccc(O)c5[nH]c(=O)sc45)cc3)CC2)C1 : does inhibition at 1 µM equal or exceed 90%?
[A] 0

[Q] Check the entry Cc1cc(CC(=O)N2CCOC3(CCN(CCOc4ccc(CNC[C@H](O)c5ccc(O)c6[nH]c(=O)sc56)cc4)CC3)C2)on1 : does inhibition at 1 µM equal or exceed 90%?
[A] 0

[Q] Check the entry O=C(c1ccnn1-c1ccccc1)N1CCOC2(CCN(Cc3cc(F)cc(CCNC[C@H](O)c4ccc(O)c5[nH]c(=O)sc45)c3)CC2)C1 : does inhibition at 1 µM equal or exceed 90%?
[A] 0

[Q] Check the entry O=C(CCc1nc2ccccc2[nH]1)N1CCOC2(CCN(Cc3cc(F)cc(CCNC[C@H](O)c4ccc(O)c5[nH]c(=O)sc45)c3)CC2)C1 : does inhibition at 1 µM equal or exceed 90%?
[A] 0

[Q] Check the entry O=C(CCc1cccs1)N1CCOC2(CCN(CCOc3ccc(CNC[C@H](O)c4ccc(O)c5[nH]c(=O)sc45)cc3)CC2)C1 : does inhibition at 1 µM equal or exceed 90%?
[A] 0

[Q] Check the entry O=C(c1cc2ccccc2s1)N1CCOC2(CCN(CCCCCCCCCNC[C@H](O)c3ccc(O)c4[nH]c(=O)sc34)CC2)C1 : does inhibition at 1 µM equal or exceed 90%?
[A] 0

[Q] Check the entry O=C(c1cc(-c2ccccc2)n[nH]1)N1CCOC2(CCN(Cc3cc(F)cc(CCNC[C@H](O)c4ccc(O)c5[nH]c(=O)sc45)c3)CC2)C1 : does inhibition at 1 µM equal or exceed 90%?
[A] 0

[Q] Check the entry O=C(c1csc(C2CCCC2)n1)N1CCOC2(CCN(CCCCCCCCCNC[C@H](O)c3ccc(O)c4[nH]c(=O)sc34)CC2)C1 : does inhibition at 1 µM equal or exceed 90%?
[A] 1

[Q] Check the entry Cc1ccc2nc(C)c(C(=O)N3CCOC4(CCN(Cc5cc(F)cc(CCNC[C@H](O)c6ccc(O)c7[nH]c(=O)sc67)c5)CC4)C3)n2c1 : does inhibition at 1 µM equal or exceed 90%?
[A] 0

[Q] Check the entry O=C(COCc1ccccc1)N1CCOC2(CCN(CCOc3ccc(CNC[C@H](O)c4ccc(O)c5[nH]c(=O)sc45)cc3)CC2)C1 : does inhibition at 1 µM equal or exceed 90%?
[A] 0

[Q] Check the entry Cc1nc2cc(C(=O)N3CCOC4(CCN(Cc5cc(F)cc(CCNC[C@H](O)c6ccc(O)c7[nH]c(=O)sc67)c5)CC4)C3)ccc2n1C : does inhibition at 1 µM equal or exceed 90%?
[A] 0

[Q] Check the entry O=C(CCOc1ccccc1)N1CCOC2(CCN(CCOc3ccc(CNC[C@H](O)c4ccc(O)c5[nH]c(=O)sc45)cc3)CC2)C1 : does inhibition at 1 µM equal or exceed 90%?
[A] 0

[Q] Check the entry Cc1csc(C(=O)N2CCOC3(CCN(CCCCCCCCCNC[C@H](O)c4ccc(O)c5[nH]c(=O)sc45)CC3)C2)c1 : does inhibition at 1 µM equal or exceed 90%?
[A] 1

[Q] Check the entry O=C(c1csc(C2CC2)n1)N1CCOC2(CCN(CCOc3ccc(CNC[C@H](O)c4ccc(O)c5[nH]c(=O)sc45)cc3)CC2)C1 : does inhibition at 1 µM equal or exceed 90%?
[A] 1

[Q] Check the entry O=C(CCOc1ccccc1)N1CCOC2(CCN(CCCCCCCCCNC[C@H](O)c3ccc(O)c4[nH]c(=O)sc34)CC2)C1 : does inhibition at 1 µM equal or exceed 90%?
[A] 1

[Q] Check the entry Cc1cccc(C(=O)N2CCOC3(CCN(CCOc4ccc(CNC[C@H](O)c5ccc(O)c6[nH]c(=O)sc56)cc4)CC3)C2)n1 : does inhibition at 1 µM equal or exceed 90%?
[A] 0

Data provenance: patent US8148373B2
